- System: REH
- assay-procedure: Cell viability (CellTiter Glo), compressed perturbation pools with informed pool design, MAX-based deconvolution, REH;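 note: higher DRS means a larger drug effect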
- study-conditions: REH, Samples, 7 Pick 3 informed perturbation pools
measurement-kind: DRS from MAX-based deconvolution
Returns: the value as a bare number; no unit string appended.

Solved cases (3 shown):
[Q] Report measured DRS from MAX-based deconvolution; entry is Cc1cc(Nc2ncc(Cl)c(Nc3ccccc3S(=O)(=O)C(C)C)n2)c(OC(C)C)cc1C1CCNCC1 [Ceritinib]
[A] 12.65

[Q] For the compound O=C(CCCCCCC(=O)Nc1ccccc1)NO [Vorinostat] , give its measured DRS from MAX-based deconvolution value.
[A] 0.00

[Q] Annotate the compound CCc1cc2c(cc1N1CCC(N3CCOCC3)CC1)C(C)(C)c1[nH]c3cc(C#N)ccc3c1C2=O [Alectinib] with its measured DRS from MAX-based deconvolution.
[A] 0.00

***
[Q] Output measured DRS from MAX-based deconvolution for this item: COc1cc2nccc(Oc3ccc(NC(=O)C4(C(=O)Nc5ccc(F)cc5)CC4)cc3)c2cc1OC [Cabozantinib]
[A] 0.00

[Q] Find the measured DRS from MAX-based deconvolution of C[C@@H](Oc1cc(-c2cnn(C3CCNCC3)c2)cnc1N)c1c(Cl)ccc(F)c1Cl [Crizotinib] and report it.
[A] 0.00

Value source: patent US20260378560A1
